Test system: AGP-01 cells
Assay: Growth inhibition assay (resazurin)
Conditions: 2D culture, 72 h, value (± SD)
pIC50: −log10 of the molar value.
Measurement name: pIC50

Some molecules with known pIC50 results, for comparison:
Molecule	pIC50
COc1cc2c(Nc3ccc(Br)cc3F)ncnc2cc1OCC1CCN(C)CC1 [Vandetanib]	< 4.70
N#CC[C@H](C1CCCC1)n1cc(-c2ncnc3[nH]ccc23)cn1 [Ruxolitinib]	< 4.70
C=CCN(/C=C1/C(=O)O[C@H](COC)[C@@]2(C)C1=C(O)C(=O)C1=C2[C@H](OC(C)=O)C[C@]2(C)C(=O)CC[C@@H]12)CC=C [PX-866]	< 4.70

Next:
// returns reported pIC50 for input Cc1nc(Nc2ncc(C(=O)Nc3c(C)cccc3Cl)s2)cc(N2CCN(CCO)CC2)n1 [Dasatinib]
6.46

----------
Tested on: ACP-02 cells
Test: Growth inhibition assay (resazurin)
Type: cell-based, human
Conditions: Homo sapiens, 2D culture, 72 h, value (± SD)
Measurement name: IC50

Worked examples, 8 compounds total:
Smiles	IC50
N#CC[C@H](C1CCCC1)n1cc(-c2ncnc3[nH]ccc23)cn1	> 20 µM
CN1CCN(CCOc2cc(OC3CCOCC3)c3c(Nc4c(Cl)ccc5c4OCO5)ncnc3c2)CC1	5.94 µM
COc1cc2nccc(Oc3ccc(NC(=O)Nc4cc(C)on4)c(Cl)c3)c2cc1OC	> 20 µM
CCCS(=O)(=O)Nc1ccc(F)c(C(=O)c2c[nH]c3ncc(-c4ccc(Cl)cc4)cc23)c1F	> 20 µM
Cc1ccc(Nc2nccc(N(C)c3ccc4c(C)n(C)nc4c3)n2)cc1S(N)(=O)=O	> 20 µM
CC[C@@H]1/C=C(\C)C[C@H](C)C[C@H](OC)[C@H]2O[C@@](O)(C(=O)C(=O)N3CCCC[C@H]3C(=O)O[C@H](/C(C)=C/[C@@H]3CC[C@H](Cl)[C@H](OC)C3)[C@H](C)[C@@H](O)CC1=O)[C@H](C)C[C@@H]2OC	> 20 µM
Cc1nc(Nc2ncc(C(=O)Nc3c(C)cccc3Cl)s2)cc(N2CCN(CCO)CC2)n1	1.02 µM
CO[C@H]1C[C@@H]2CC[C@@H](C)[C@@](O)(O2)C(=O)C(=O)N2CCCC[C@H]2C(=O)O[C@H]([C@H](C)C[C@@H]2CC[C@@H](OCCO)[C@H](OC)C2)CC(=O)[C@H](C)/C=C(\C)[C@@H](O)[C@@H](OC)C(=O)[C@H](C)C[C@H](C)/C=C/C=C/C=C/1C	> 20 µM

Enter reported IC50 observed with ACP-02 cells for COc1cc2c(Nc3ccc(Br)cc3F)ncnc2cc1OCC1CCN(C)CC1
> 20 µM
